Measured values drawn from PubChem BioAssay AID1645868 for this set.

target: OTU domain-containing protein 3 (Homo sapiens) (UniProt Q5T2D3); assay: Validation of screening hits, potency titration, in vitro enzymatic, OTU domain-containing protein 3 DUB inhibitors (AID 1645868); settings: purified OTUD3, ubiquitin-rhodamine cleavage fluorescence, 2 h
Sequence (Q5T2D3 whole entry, looked up, the tested form may be a part): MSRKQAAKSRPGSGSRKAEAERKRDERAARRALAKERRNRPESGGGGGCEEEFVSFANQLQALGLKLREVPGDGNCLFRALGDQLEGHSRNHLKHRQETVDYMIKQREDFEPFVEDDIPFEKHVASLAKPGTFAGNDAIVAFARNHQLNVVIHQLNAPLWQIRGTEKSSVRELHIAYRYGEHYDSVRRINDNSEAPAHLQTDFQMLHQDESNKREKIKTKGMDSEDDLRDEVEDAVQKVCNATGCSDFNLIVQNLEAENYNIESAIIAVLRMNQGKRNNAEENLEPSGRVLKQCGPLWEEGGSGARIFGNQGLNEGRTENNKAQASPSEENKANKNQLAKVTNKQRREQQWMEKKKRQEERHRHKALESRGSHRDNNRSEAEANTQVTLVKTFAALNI
Active and inactive are the calls of the source.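 The calls were made as follows: active = maximal percent inhibition of the deubiquitinase OTUD3 of at least 30% across the tested doses; inactive = the rest.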
Labels: active, inactive

{"columns": ["compound", "categoryLabel"],
 "data": [
  ["O=C(Nc1ccccc1)c1nc(-c2cn(Cc3ccc(F)cc3)nn2)no1", "inactive"],
  ["O=C(OCc1ccc(Br)cc1)c1ccc2ccccc2n1", "inactive"],
  ["Cn1c(CCN2CCCC2)nc2cc(NS(=O)(=O)c3ccccc3)ccc21", "inactive"],
  ["Nc1ncnc2c1ncn2[C@@H]1O[C@H](CO)C[C@@H]1O", "active"],
  ["O=C(COc1nsnc1N1CCOCC1)Nc1ccc(F)c(F)c1", "inactive"],
  ["CC(=O)Nc1ccc(S(=O)(=O)NCc2ccc(C(=O)NCc3ccc(C)cc3)cc2)cc1", "active"],
  ["Nc1ccc(NC(=O)c2cc3c(s2)CCC3)cc1[N+](=O)[O-]", "active"],
  ["CC1CCN(S(=O)(=O)c2ccc3[nH]cc(C(=O)NCc4ccco4)c(=O)c3c2)CC1", "inactive"],
  ["O=S(=O)(c1cccc(F)c1)N1CCN(c2nnnn2-c2ccccc2)CC1", "inactive"],
  ["N#Cc1ccc(NC(=O)COC(=O)c2ccc3ccccc3n2)cc1", "inactive"],
  ["COc1ccc(NC(=O)c2nnn(-c3ccccc3C)c2C)cc1OC", "inactive"],
  ["O=S(=O)(Nc1ccc2oc(-c3ccncc3)nc2c1)c1ccccc1", "inactive"],
  ["CN(C(=O)c1ccncc1)[C@H]1CC[C@@]2(C)C[C@H](c3ccccc3)C[C@](C)(O2)[C@@H]1O", "inactive"],
  ["Cc1cc(C(=O)N2CCOCC2)c(C)n1-c1ccc(O)cc1", "inactive"],
  ["Cc1ccc(-n2cc3c(N4CCCC(C(=O)NCC5CCCCC5)C4)ncnc3n2)cc1 (configuration not stated)", "inactive"],
  ["COc1ccc(NC(=O)C2CCCN(S(=O)(=O)N3CCCCCC3)C2)cc1 (configuration not stated)", "inactive"],
  ["O=c1c2cc([N+](=O)[O-])ccc2nc(CN2CCN(c3ccccn3)CC2)n1-c1ccccc1F", "inactive"],
  ["COCCCNC(=O)c1ccc(Cn2c(=O)c3ccccc3n(CC(=O)Nc3ccc(OC)cc3)c2=O)cc1", "active"],
  ["N=C1C(c2nc3ccccc3s2)=C(O)CN1Cc1ccc(F)cc1", "inactive"],
  ["CCCCn1c(=O)c(CCC(=O)OCC(=O)Nc2ccc3c(c2)OCCO3)nc2ccccc21", "inactive"],
  ["CS(=O)(=O)N1CCCN(c2nc3cc(Cl)ccc3n3cccc23)CC1", "inactive"],
  ["N#Cc1ccc(COC(=O)c2ccc3ccccc3n2)cc1", "inactive"],
  ["Nc1nc(OCc2ccccc2)c2[nH]c(/C=C/c3cccs3)nc2n1", "active"],
  ["CCn1cc(NC(=O)CN2CCC3(CC=CCOC3)CC2)c(C)n1", "inactive"],
  ["Cc1sc(NC(=O)CNc2ccccc2)nc1-c1ccc2c(c1)CCN2C(=O)C(C)C", "inactive"],
  ["COc1ccc(Cl)cc1NC(=O)Cn1c(=O)cc(C)c2c(C)nn(-c3ccccc3)c21", "active"],
  ["COc1ccc(S(=O)(=O)N2CCc3ccccc32)cc1C(=O)Nc1ccc2[nH]c(=O)[nH]c2c1", "active"],
  ["CC(=O)C1=C(O)[C@]2(O)C(=O)c3c(c(C)c4ccc(C)c(O)c4c3O)C[C@H]2[C@@H](N)C1=O", "active"],
  ["O=C(Cn1c(=O)n(CC(=O)NC2CCCC2)c(=O)c2ccccc21)Nc1cc(Cl)ccc1Cl", "active"],
  ["O=S(=O)(O)c1cc2cc3ccccc3cc2[nH]1", "inactive"],
  ["CCn1c(SCC(=O)N2c3ccccc3CC2C)nnc1-c1ccc2c(c1)OCCO2 (configuration not stated)", "inactive"],
  ["CN(C)S(=O)(=O)c1ccc(C(=O)Nc2c(C#N)oc3ccccc23)cc1", "inactive"],
  ["CSc1nccc(-c2ccc(F)cc2)c1C#N", "inactive"],
  ["CC(C)(C)n1ncc2c(=O)n(Cc3cccc([N+](=O)[O-])c3)cnc21", "inactive"],
  ["COc1ccc(Cn2c(=O)[nH]c3cc(C(=O)NCCCN4CCN(c5cccc(Cl)c5)CC4)ccc3c2=O)cc1", "active"],
  ["Cc1c(Cl)cccc1NC(=O)Cn1c(=O)c2ccccc2n2nncc12", "inactive"],
  ["Cc1ccc(NC(=O)c2cnc3c(c2)c(=O)n(C)c(=O)n3C)cc1", "active"],
  ["CC1CCCN(CCCNC(=O)c2ccc(N3CCc4ccccc43)s2)C1 (configuration not stated)", "inactive"],
  ["Cc1ccc(NC(=O)c2cc(=O)n(C)c3c2c(=O)n(C)c(=O)n3C)c(C)c1", "inactive"],
  ["COC(=O)c1cc(C#N)c(NCc2ccccc2)nc1C", "inactive"],
  ["Cc1cnnn1-c1ccc(C(=O)Nc2cc(Cl)ccc2Cl)cc1", "inactive"],
  ["COc1ccc(NC(=O)C2CCN(c3cncnc3N(C)C)CC2)cc1OC", "inactive"]
]}

====

target: OTU domain-containing protein 3 (Homo sapiens) (UniProt Q5T2D3); test: Validation of screening hits, potency titration, in vitro enzymatic, OTU domain-containing protein 3 DUB inhibitors (AID 1645868); conditions: purified OTUD3, ubiquitin-rhodamine cleavage fluorescence, 2 h
The source made the active and inactive calls.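 The calls were made as follows: active = maximal percent inhibition of the deubiquitinase OTUD3 of at least 30% across the tested doses; inactive = the rest.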
Labels: active, inactive

{"columns": ["compound", "categoryLabel"],
 "data": [
  ["Cc1ccc(NC(=O)c2ccn(COc3ccc(F)cc3)n2)nc1", "inactive"],
  ["Cc1ccccc1NC(=O)c1cc(S(=O)(=O)N2CCCCCC2)ccc1Cl", "active"],
  ["COc1ccc(CNC(=O)CN2C(=O)C(C)=C(c3ccc(C)cc3)S2(=O)=O)cc1", "inactive"],
  ["Cc1cc(=O)n(CC(=O)Nc2ccccc2F)c(Nc2ccc(F)cc2)n1", "active"],
  ["Cc1nc2ccc(NC(=O)COc3ccccc3[N+](=O)[O-])cc2s1", "active"],
  ["COc1cc(C)c(NC(=O)c2cc(-c3ccccc3)c(N3CCOCC3)s2)cc1OC", "inactive"],
  ["O=C(Cn1cncc(-c2nc(-c3ccccc3)cs2)c1=O)NC1CCCC1", "inactive"],
  ["CCOc1ccc(NC(=O)c2cc(-c3ccccc3)c(N3CCOCC3)s2)cc1", "active"],
  ["COc1ccc(-c2nc(SCC(=O)Nc3ccc(Cl)cc3F)n[nH]2)cc1", "inactive"],
  ["COc1ncccc1CN1CCn2c(Cn3cccn3)cnc2C1C (stereo unspecified)", "inactive"],
  ["O=C(CSc1nncc2ccccc12)Nc1ccc2c(c1)OCO2", "inactive"]
]}

====

target: OTU domain-containing protein 3 (Homo sapiens); experiment: Validation of screening hits, potency titration, in vitro enzymatic, OTU domain-containing protein 3 DUB inhibitors (AID 1645868); conditions: purified OTUD3, ubiquitin-rhodamine cleavage fluorescence, 2 h
Calls of active or inactive are those of the source.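 How the source made its calls: active means maximal percent inhibition of the deubiquitinase OTUD3 of at least 30% across the tested doses; inactive means the rest.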
Labels: active, inactive

{"columns": ["compound", "categoryLabel"],
 "data": [
  ["O=C(COC(=O)c1ccc(NS(=O)(=O)c2ccc3c(c2)OCCO3)cc1)NCc1ccc(Cl)cc1", "inactive"],
  ["CCOC(=O)c1ccc(NC(=O)C[n+]2cc(-c3ccc(Cl)cc3)n3c2CCC3)cc1", "inactive"],
  ["O=C(CN1C(=O)C2CCCC2=Nc2ccccc21)Nc1cc(F)ccc1F (stereo unspecified)", "active"],
  ["COc1ccc(OCCn2c(C3CC(=O)N(c4cccc(C)c4)C3)nc3ccccc32)cc1 (stereo unspecified)", "active"],
  ["O=c1c(NCCCN2CCCC2)nc2ccncc2n1Cc1ccccc1", "inactive"],
  ["Cc1ccc(-c2ncc(C(=O)NCc3cccc(C)c3)c(-c3ccncc3)n2)cc1", "inactive"],
  ["CCCCCCCc1cc(O)cc(O)c1", "inactive"],
  ["CS(=O)(=O)N1CCc2cc(C(=O)Nc3ccc(Cc4ccncc4)cc3)ccc21", "inactive"],
  ["CCn1c(CNc2ccc(Cl)cc2)nnc1SCC(=O)Nc1ccccc1", "inactive"],
  ["CCN(CC)c1cc(C)c2cc(NC(=O)c3ccncc3)ccc2n1", "inactive"],
  ["Cc1c(-c2ccccc2)oc2c(C(=O)OCC(=O)Nc3ccccc3F)cccc2c1=O", "inactive"],
  ["CCC(C)c1ccc(-c2csc(Cn3c(CN4CCN(C)CC4)nc4ccccc4c3=O)n2)cc1 (stereo unspecified)", "active"],
  ["COc1ccc(N2CCN(Cc3nnnn3Cc3ccc4c(c3)OCO4)CC2)cc1", "inactive"],
  ["O=C(Nc1ccc2c(c1)OCCO2)C1CCN(C(=O)c2ccccc2)CC1", "inactive"],
  ["COc1ccc(CN2C[C@@H]3C[C@]3(c3ccccc3)C(=O)c3ncccc32)cc1", "inactive"],
  ["CCN1CCN(C(=O)CCCN(c2ccccc2)S(C)(=O)=O)CC1", "inactive"],
  ["CC(=O)Nc1ccc([C@H]2OCC(=O)N(C3CCOCC3)[C@@H]2CO)cc1", "inactive"],
  ["Clc1cc2nc(N3CCN(c4ccccn4)CC3)c3nncn3c2cc1Cl", "active"],
  ["CC[C@H](C)[C@H](NC(=O)[C@H]([C@@H](C)CC)N(C)C(C)=O)C(=O)N[C@H](C(=O)N[C@@H](CC(C)C)C(=O)C1(C)CO1)[C@@H](C)O (stereo partly specified)", "inactive"],
  ["Cc1cc(C)cc(NC(=O)CSc2ccc(-c3ccncc3)nn2)c1", "inactive"],
  ["Clc1ccc(C[n+]2cc(-c3ccc(Cl)cc3)n3c2CCC3)cc1", "inactive"]
]}
